Biological target: Cyclin-dependent kinase 1/cyclin B1 (Homo sapiens, UniProt P06493+P14635)
Sequence (P06493 whole entry, looked up): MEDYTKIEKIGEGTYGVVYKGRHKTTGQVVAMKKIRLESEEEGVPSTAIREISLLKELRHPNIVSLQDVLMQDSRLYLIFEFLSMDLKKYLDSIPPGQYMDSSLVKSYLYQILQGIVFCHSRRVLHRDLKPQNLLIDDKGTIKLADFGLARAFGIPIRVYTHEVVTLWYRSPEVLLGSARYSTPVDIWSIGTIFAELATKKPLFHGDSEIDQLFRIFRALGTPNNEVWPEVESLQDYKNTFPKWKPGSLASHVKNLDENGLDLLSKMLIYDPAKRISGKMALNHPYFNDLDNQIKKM
Sequence (P14635 whole entry, looked up): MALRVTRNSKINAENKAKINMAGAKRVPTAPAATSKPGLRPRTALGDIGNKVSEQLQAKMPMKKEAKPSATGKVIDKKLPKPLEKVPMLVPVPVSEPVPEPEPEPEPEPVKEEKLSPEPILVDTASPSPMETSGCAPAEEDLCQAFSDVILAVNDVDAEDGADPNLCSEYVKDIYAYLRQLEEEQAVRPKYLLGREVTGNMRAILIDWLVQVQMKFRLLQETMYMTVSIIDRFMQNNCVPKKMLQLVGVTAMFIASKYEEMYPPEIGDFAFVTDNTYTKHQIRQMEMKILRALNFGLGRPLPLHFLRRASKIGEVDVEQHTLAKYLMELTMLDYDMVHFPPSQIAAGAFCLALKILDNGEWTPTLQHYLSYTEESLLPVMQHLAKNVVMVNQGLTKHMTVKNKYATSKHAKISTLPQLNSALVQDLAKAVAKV
Assay: Inhibition of starfish oocyte (Marthasteria glacialis) Cyclin-dependent kinase 1-cyclin B1 at a concentration of 100 uM
Type: protein-complex assay
Conditions: Asteroidea
value-type: inhibition (%)

Nc1nc(OCC2COc3ccccc3O2)c2nc[nH]c2n1 (stereo unspecified) = 52
CC1(C)OC[C@@H](COc2nc(N)nc3[nH]cnc23)O1 = 46
Nc1nc(OCC2CCNCC2)c2nc[nH]c2n1 = 52
Nc1nc(OCC2CCCCO2)c2nc[nH]c2n1 (stereo unspecified) = 50
CCOc1nc(N)nc2[nH]cnc12 = 48
COCC(COc1nc(N)nc2[nH]cnc12)OC (stereo unspecified) = 49

Origin of the recorded values: ChEMBL document CHEMBL1135525
